Reference source for all entries: ChEMBL document CHEMBL1681675

// values below are reported solubility
Assay: Solubility of the compound
Assay type: physicochemical
Property Label: solubility (µM)

>>> numeric_result("COCCNC(=O)c1cccc(-c2cc(-c3ccc(N4CCN(C)CC4)cc3)[nH]n2)c1")
760
>>> numeric_result("CN1CCN(c2ccc(-c3cc(-c4cccc(C(=O)NCC(F)(F)F)c4)n[nH]3)cc2)CC1")
170
>>> numeric_result("C[C@H](C#N)NC(=O)c1cccc(-c2cc(-c3ccc(CNC4CCOCC4)cc3)on2)c1")
240
>>> numeric_result("CN1CCN(c2ccc(-c3cc(-c4cccc(C(=O)NCCC#N)c4)n[nH]3)cc2)CC1")
650
